# credit: paper PMC8153077

targetOrSystem: HmqD (Burkholderia ambifaria)
Construct: recombinant HmqD overexpressed in live E. coli BL21
Sequence (Q0B3G0 entry or part of it): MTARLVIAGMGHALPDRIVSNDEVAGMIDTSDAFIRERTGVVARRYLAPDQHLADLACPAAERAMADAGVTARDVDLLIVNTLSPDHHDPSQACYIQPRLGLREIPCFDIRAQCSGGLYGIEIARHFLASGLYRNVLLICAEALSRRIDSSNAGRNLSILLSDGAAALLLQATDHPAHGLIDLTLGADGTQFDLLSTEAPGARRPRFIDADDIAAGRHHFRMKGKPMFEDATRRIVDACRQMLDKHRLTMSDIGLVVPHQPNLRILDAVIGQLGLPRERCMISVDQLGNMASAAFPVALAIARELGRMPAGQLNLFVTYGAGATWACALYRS
assayNotes: competitive live-cell activity-based labelling against probe CAA, in-gel fluorescence
pIC50: −log10 of the molar value.
experimentalReadout: pIC50

Nc1ccc(I)cc1C(=O)CCl [compound 4] :: 7.00
Nc1cc2c(cc1C(=O)CCl)OCCO2 [compound 7] :: 6.70
O=C(CCl)c1ccccc1 [compound 9] :: 6.70
